# System: A549
# assay-notes: Antiproliferative activity against human A549 cells after 72 hrs by sulforhodamine B assay
# Format: functional, cell-based
# measurement-parameters: A549, 72 h
reported-property: IC50 (µM)

compound	target-under-test	units-of-measure	measured
CN(C)C(=S)N/N=C/c1ccc2ccccc2n1	A549	µM	0.45
